Cited source for all entries: patent US20250304667A1

Each entry below carries its reported IC50 (read off the curve), OD (450nM).
target: human complement Component 5 (C5) (human, UniProt P01031 19-1676, limits assumed); assay: cell-based or functional assay
Sequence (P01031 19-1676 limits assumed): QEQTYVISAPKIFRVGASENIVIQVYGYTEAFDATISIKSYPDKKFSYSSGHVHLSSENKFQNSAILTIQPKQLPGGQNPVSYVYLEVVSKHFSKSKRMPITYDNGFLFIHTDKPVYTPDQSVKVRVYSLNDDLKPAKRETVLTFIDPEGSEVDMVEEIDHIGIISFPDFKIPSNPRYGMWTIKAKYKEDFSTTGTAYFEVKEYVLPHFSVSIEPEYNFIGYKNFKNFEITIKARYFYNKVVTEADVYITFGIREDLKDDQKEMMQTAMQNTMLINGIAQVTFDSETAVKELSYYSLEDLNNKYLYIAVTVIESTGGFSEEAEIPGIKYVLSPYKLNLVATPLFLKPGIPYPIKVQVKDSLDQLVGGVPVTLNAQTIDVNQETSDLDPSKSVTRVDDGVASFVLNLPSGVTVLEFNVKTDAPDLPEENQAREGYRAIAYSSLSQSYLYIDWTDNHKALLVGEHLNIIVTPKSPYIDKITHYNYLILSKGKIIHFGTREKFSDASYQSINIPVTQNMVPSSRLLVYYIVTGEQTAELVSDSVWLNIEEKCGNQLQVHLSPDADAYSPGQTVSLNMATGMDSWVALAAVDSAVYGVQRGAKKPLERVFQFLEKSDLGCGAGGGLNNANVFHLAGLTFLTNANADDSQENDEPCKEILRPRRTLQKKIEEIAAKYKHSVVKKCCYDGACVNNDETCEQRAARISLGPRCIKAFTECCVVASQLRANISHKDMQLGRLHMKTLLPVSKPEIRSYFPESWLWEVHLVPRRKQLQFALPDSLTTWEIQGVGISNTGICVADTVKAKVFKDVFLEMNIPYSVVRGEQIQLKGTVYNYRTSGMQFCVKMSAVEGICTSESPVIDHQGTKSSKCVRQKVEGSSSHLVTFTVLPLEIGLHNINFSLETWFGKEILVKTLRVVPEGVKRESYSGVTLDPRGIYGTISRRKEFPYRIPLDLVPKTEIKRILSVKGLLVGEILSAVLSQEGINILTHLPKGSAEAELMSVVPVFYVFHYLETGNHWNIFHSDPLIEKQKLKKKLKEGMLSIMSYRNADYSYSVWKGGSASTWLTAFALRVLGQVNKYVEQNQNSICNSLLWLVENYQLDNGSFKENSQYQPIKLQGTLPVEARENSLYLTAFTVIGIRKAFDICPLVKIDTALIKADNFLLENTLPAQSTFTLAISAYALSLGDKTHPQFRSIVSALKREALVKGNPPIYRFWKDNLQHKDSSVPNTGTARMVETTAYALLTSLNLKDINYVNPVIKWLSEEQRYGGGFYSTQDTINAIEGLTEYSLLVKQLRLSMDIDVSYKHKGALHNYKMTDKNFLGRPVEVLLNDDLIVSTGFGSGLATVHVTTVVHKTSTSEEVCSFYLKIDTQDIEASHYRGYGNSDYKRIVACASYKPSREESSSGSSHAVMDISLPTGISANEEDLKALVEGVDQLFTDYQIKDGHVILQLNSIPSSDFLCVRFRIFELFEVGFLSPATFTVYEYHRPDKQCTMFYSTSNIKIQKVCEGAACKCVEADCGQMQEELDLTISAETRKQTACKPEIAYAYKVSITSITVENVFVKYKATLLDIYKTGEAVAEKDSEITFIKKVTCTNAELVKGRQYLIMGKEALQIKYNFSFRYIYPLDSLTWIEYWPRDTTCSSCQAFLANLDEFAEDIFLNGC

See these solved cases before continuing.
1. H5L2-IgG (antibody, V domains shown) VH: QVQLKQSGAEVKKPGASVKVSCKASGYTFTDEYMNWVRQAPGKSLEWMGYINPNNGGADYNQKFQGRVTMTVDQSISTAYMELSRLRSDDTAVYFCARLGYSNPYFDFWGQGTLVTVSS VL: DIVLTQSPATLSLSPGERATLSCRASQDVNTAVAWYQQKPDQSPKLLIYWASTRHTGVPARFTGSGSGTDYTLTISSLQPEDFAVYFCQQHHVSPWTFGGGTKVEIK
~0.7 µg/mL
2. H2L2-IgG (antibody, V domains shown) VH: EVQLVQSGAEVKKPGASVKVSCKASGYTFTDEYMNWVRQAPGKSLEWVGYINPNNGGADYNQKFQGRVTITVDQSASTAYMELSSLRSEDTAVYFCARLGYSNPYFDFWGQGTLVTVSS VL: DIVLTQSPATLSLSPGERATLSCRASQDVNTAVAWYQQKPDQSPKLLIYWASTRHTGVPARFTGSGSGTDYTLTISSLQPEDFAVYFCQQHHVSPWTFGGGTKVEIK
~0.7 µg/mL

What does the data say about its IC50 (read off the curve), OD (450nM)? Entry: H3L1-IgG (antibody, V domains shown) VH: QVQLVQSGAEVKKPGASVKVSCKASGYTFTDEYMNWVRQAPGQSLEWMGYINPNNGGADYNPSLKSRVTISVDQSISTAYMELSRLRSDDTAVYFCARLGYSNPYFDFWGQGTLVTVSS VL: DIVLTQSPDSLAVSLGERATINCKASQDVNTAVAWYQQKPDQSPKLLIYWASTRHTGVPARFTGSGSGTDYTLTISSLQAEDVAVYFCQQHHVSPWTFGGGTKVEIK
~0.7 µg/mL

What would you report for H3L2-IgG (antibody, V domains shown) VH: QVQLVQSGAEVKKPGASVKVSCKASGYTFTDEYMNWVRQAPGQSLEWMGYINPNNGGADYNPSLKSRVTISVDQSISTAYMELSRLRSDDTAVYFCARLGYSNPYFDFWGQGTLVTVSS VL: DIVLTQSPATLSLSPGERATLSCRASQDVNTAVAWYQQKPDQSPKLLIYWASTRHTGVPARFTGSGSGTDYTLTISSLQPEDFAVYFCQQHHVSPWTFGGGTKVEIK ?
~0.8 µg/mL
